Assay: Ex vivo biodistribution and tumor targeting
Conditions: female, BALB/c nu/nu, mouse, remaining carcass (whole sample), iv, 45 pmol per mouse, total radioactivity
Readings of tissue uptake dose at 3 h for the listed compounds
Numeric only. Scale: %ID

Example entries begin here.
# compound, numeric-value
data = [
    ("CC(C)C[C@H](NC(=O)C[C@H](O)[C@H](CC(C)C)NC(=O)[C@H](Cc1c[nH]cn1)NC(=O)CNC(=O)[C@@H](NC(=O)[C@H](C)NC(=O)[C@H](Cc1c[nH]c2ccccc12)NC(=O)[C@H](CCC(N)=O)NC(=O)[C@@H](Cc1ccccc1)NC(=O)COCCOCCNC(=O)CCC(C(=O)O)N1CCN(CC(=O)O)CCN(CC(=O)O)CC1)C(C)C)C(N)=O (stereo partly shown)", 1.3),
    ("CC(C)C[C@H](NC(=O)C[C@H](O)[C@H](CC(C)C)NC(=O)[C@H](Cc1c[nH]cn1)NC(=O)CNC(=O)[C@@H](NC(=O)[C@H](C)NC(=O)[C@H](Cc1c[nH]c2ccccc12)NC(=O)[C@H](CCC(N)=O)NC(=O)[C@@H](Cc1ccccc1)NC(=O)COCCOCCNC(=O)CN1CCN(CC(=O)O)CCN(CC(=O)O)CC1)C(C)C)C(N)=O", 0.6),
]

Incoming: tissue uptake dose at 3 h lookup needed for CC(C)C[C@H](NC(=O)C[C@H](O)[C@H](CC(C)C)NC(=O)[C@H](Cc1c[nH]cn1)NC(=O)CNC(=O)[C@@H](NC(=O)[C@H](C)NC(=O)[C@H](Cc1c[nH]c2ccccc12)NC(=O)[C@H](CCC(N)=O)NC(=O)[C@@H](Cc1ccccc1)NC(=O)COCCOCCNC(=O)CN1CCN(CC(=O)O)CCN(CC(=O)O)CCN(CC(=O)O)CC1)C(C)C)C(N)=O , thanks.
Outgoing: 0.9

Incoming: tissue uptake dose at 3 h lookup needed for CC(C)C[C@H](NC(=O)C[C@H](O)[C@H](CC(C)C)NC(=O)[C@H](Cc1c[nH]cn1)NC(=O)CNC(=O)[C@@H](NC(=O)[C@H](C)NC(=O)[C@H](Cc1c[nH]c2ccccc12)NC(=O)[C@H](CCC(N)=O)NC(=O)[C@@H](Cc1ccccc1)NC(=O)COCCOCCNC(=O)CCC(C(=O)O)N1CCN(CC(=O)O)CCN(CC(=O)O)CCN(CC(=O)O)CC1)C(C)C)C(N)=O (stereo partly shown) , thanks.
Outgoing: 1.9
